# Tested on: Human immunodeficiency virus 1
# experimental details: Concentration required to inhibit 50% viral production of human immunodeficiency virus type 1 (HIV-1-IIIB)
# Type: functional, organism-based
pIC50: −log10 of the molar value.
Give Criterion met when the value for pIC50 is at least 6. Give Criterion not met when it is less.

| compound | class name |
| --- | --- |
| Cc1c(Sc2ccccc2)n(COCCO)c(=S)[nH]c1=O | Criterion not met |

Q. Decide: pIC50 of `CC1=C(C(=O)Nc2ccc(Cl)c(C(=O)OC(C)C)c2)SCCO1` >= 6?
A. Criterion met

Q. Check COc1ccc2c(c1)N(C(=O)OC(C)C)C(CSC)C(S)=N2 (stereo unspecified) too.
A. Criterion met

====

# Tested on: Human immunodeficiency virus 1
# experimental details: Concentration required to inhibit 50% viral production of human immunodeficiency virus type 1 (HIV-1-IIIB)
# Type: functional, organism-based
Reported pIC50 values for the following molecules.
In simple prose, pIC50 is minus the logarithm base ten of a concentration in moles per litre.

Please review the entries below; each comes with its answer.
| molecule | recorded value |
| --- | --- |
| CC(C)OC(=O)c1cc(NC(=S)OC(C)C)ccc1Cl | 7.54 |
| Cc1ccnc2c1NC(=O)c1cccnc1N2C1CC1 [NEVIRAPINE] | 6.70 |
| O=C1Nc2ccc(Cl)cc2[C@@](C#CC2CC2)(C(F)(F)F)O1 [EFAVIRENZ] | 8.53 |
| O=C1c2ccccc2C2(c3ccccc3)SCCN12 (stereo not given) | 7.80 |
| CC(C)=CCN1Cc2cc(Cl)cc3nc(S)n(c23)CC1C (stereo not given) [TIBO] | 7.48 |

Q. Write down the reported pIC50 of CC(=O)c1ccc(C)cc1NC(C(N)=O)c1c(Cl)cccc1Cl (stereo not given) [LOVIRIDE] , test system: Human immunodeficiency virus 1.
A. 7.00

Q. Check `CCCCCC=C(c1cc(Br)c(OC)c(C(=O)OC)c1)c1cc(Br)c(OC)c(C(=O)OC)c1` too.
A. 4.80

Q. Check `CCN1c2ncccc2-c2ncc(C)n2-c2ccc(OC)nc21` too.
A. 6.72

Q. Check CC(C)c1nc(COC(N)=O)n(Cc2ccncc2)c1Sc1cc(Cl)cc(Cl)c1 [CAPRAVIRINE] too.
A. 8.51

Q. Check S=C(NCCc1ccccn1)Nc1ccc(Br)cn1 [TROVIRDINE] too.
A. 7.70

====

Reported IC50 values for the following compounds.
# Test system: Human immunodeficiency virus 1
# experimental details: Concentration required to inhibit 50% viral production of human immunodeficiency virus type 1 (HIV-1-IIIB)
# Assay type: functional, organism-based
Please reply with the bare figure in nM and do not write the unit itself.

Please review the entries below; each comes with its answer.
| smiles repr | IC50, nM |
| --- | --- |
| Fc1cccc(F)c1CC/N=C(\S)Nc1ccc(Br)cn1 | 10 |
| CC(C)c1c(Cc2ccccc2)n(COCc2ccccc2)c(=O)[nH]c1=O | 6 |

Q. Which IC50 is listed for `CCOCn1c(Cc2ccccc2)c(C(C)C)c(=O)[nH]c1=O` ?
A. 8

====

# System: Human immunodeficiency virus 1
# experimental details: Concentration required to inhibit 50% viral production of human immunodeficiency virus type 1 (HIV-1-IIIB)
# Format: functional, organism-based
observation type: pIC50
In simple prose, pIC50 is minus the logarithm base ten of a concentration in moles per litre.

Q. Which pIC50 is listed for CC1Oc2c3c(c4c(-c5ccccc5)cc(=O)oc4c2C(O)C1C)OC(C)(C)C=C3 (stereo not drawn) ?
A. 5.85

Q. Check CCC1=CC(NCc2nc3c(C)ccc(C)c3o2)C(=O)N=C1C (stereo not drawn) too.
A. 7.30

Q. Check C=CCN1Cc2cccc3[nH]c(=O)n(c23)CC1C (stereo not drawn) too.
A. 4.21

Q. Check NC(=O)C(Nc1ccccc1[N+](=O)[O-])c1c(Cl)cccc1Cl (stereo not drawn) too.
A. 7.48

====

Reported pIC50 values for the following compounds.
# System: Human immunodeficiency virus 1
# experimental details: Concentration required to inhibit 50% viral production of human immunodeficiency virus type 1 (HIV-1-IIIB)
# Type: functional, organism-based
In simple prose, pIC50 is minus the logarithm base ten of a concentration in moles per litre.

| smiles repr | pIC50 |
| --- | --- |
| CC(C)Nc1cccnc1N1CCN(C(=O)c2cc3cc(NS(C)(=O)=O)ccc3[nH]2)CC1 | 5.96 |
| Cc1c(O)nc(OC2CCCCC2)nc1Cc1ccccc1 | 5.33 |
| O=C(O)C1=CC(=C(c2ccc(O)c(C(=O)O)c2)c2ccc(O)c(C(=O)O)c2)C=CC1=O | 5.30 |

Q. Which pIC50 is listed for `Fc1cccc(Cl)c1CCNC(=S)Nc1nccs1` ?
A. 7.30
